The measured values listed here are drawn from patent US11174268B2.

Target: NaV1.6 (Homo sapiens (Human))
Sequence (Q9UQD0 whole entry, looked up): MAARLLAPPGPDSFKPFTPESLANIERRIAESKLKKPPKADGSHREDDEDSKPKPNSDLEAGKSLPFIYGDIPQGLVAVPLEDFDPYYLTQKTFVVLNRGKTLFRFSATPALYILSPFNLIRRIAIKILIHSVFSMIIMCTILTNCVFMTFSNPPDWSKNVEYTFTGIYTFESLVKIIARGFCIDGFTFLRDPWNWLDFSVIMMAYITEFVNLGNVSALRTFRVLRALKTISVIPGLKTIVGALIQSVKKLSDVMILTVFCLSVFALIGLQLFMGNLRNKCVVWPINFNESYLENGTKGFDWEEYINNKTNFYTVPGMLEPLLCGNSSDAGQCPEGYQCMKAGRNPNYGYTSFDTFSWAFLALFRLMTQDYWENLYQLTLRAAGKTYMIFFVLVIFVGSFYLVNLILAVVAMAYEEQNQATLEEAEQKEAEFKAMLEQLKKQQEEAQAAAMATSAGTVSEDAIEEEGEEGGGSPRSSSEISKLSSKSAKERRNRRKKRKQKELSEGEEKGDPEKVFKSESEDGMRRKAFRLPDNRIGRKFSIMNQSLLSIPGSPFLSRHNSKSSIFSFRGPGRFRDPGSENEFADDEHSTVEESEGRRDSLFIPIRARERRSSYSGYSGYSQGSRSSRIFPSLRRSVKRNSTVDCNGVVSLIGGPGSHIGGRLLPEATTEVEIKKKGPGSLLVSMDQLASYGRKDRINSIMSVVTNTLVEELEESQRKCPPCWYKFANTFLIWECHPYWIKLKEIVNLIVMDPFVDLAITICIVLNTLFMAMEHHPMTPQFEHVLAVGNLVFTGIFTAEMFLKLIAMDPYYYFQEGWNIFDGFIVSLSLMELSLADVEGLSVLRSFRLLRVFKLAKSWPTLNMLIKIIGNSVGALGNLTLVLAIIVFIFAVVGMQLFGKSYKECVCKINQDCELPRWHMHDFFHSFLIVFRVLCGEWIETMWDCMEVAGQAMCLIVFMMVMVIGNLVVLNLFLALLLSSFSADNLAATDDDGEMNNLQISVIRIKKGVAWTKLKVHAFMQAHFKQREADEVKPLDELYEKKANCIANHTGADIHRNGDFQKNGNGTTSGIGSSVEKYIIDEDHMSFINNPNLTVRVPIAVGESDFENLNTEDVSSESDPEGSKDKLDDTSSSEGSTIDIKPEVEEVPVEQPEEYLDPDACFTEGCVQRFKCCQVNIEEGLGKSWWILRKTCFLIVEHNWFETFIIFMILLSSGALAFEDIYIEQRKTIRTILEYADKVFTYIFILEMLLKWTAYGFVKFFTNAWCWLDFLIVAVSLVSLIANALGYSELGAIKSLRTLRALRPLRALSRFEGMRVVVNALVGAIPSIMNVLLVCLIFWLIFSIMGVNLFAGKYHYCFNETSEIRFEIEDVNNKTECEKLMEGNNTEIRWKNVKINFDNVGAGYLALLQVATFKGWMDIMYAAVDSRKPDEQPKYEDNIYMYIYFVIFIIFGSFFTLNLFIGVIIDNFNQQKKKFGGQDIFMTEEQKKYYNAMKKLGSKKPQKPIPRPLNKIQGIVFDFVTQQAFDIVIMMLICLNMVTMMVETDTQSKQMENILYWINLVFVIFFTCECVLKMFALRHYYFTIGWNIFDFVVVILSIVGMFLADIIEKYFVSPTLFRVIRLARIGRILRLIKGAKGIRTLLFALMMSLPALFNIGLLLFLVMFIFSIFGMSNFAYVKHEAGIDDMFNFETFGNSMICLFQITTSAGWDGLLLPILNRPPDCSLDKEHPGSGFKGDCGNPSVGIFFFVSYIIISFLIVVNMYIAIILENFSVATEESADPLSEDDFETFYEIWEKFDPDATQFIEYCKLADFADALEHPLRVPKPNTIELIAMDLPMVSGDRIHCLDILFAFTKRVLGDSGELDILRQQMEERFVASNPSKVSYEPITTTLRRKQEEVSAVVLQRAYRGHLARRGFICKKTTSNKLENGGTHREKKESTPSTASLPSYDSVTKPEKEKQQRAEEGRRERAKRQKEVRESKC
Sequence (Q07699 whole entry partner, looked up): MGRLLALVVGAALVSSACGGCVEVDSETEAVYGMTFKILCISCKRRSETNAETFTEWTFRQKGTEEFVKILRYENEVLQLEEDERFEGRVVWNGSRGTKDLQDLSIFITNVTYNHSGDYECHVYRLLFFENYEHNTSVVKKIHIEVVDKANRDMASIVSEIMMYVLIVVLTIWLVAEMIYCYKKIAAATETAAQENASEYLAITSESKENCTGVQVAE
Experiment: Sodium Influx Assay (Flux), NaV1.6;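 note: Tetracycline-induced cells, compounds applied for one hour at room temperature with modulators holding channels open, IC50 from percent inhibition of sodium influx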
Format: cell-based
Settings: Trex HEK293 cells, ANG2 dye, inactivated state
pIC50: −log10 of the molar value. Where a name gives a salt, the structure may show the parent alone.
pIC50 below 7 gives 0; pIC50 at or above it gives 1.

Ask | Please tell me: is the molecule COC[C@H]1CCCN1Cc1cccc(F)c1CNc1cc(F)c(S(=O)(=O)Nc2cscn2)c(F)c1 [Example 154, formate] at or over 7 in terms of pIC50?
Reply | 0

Ask | Please tell me: is the molecule "CC[C@H](Nc1cc(F)c(S(=O)(=O)Nc2nccs2)cc1Cl)c1ccccc1C" at or over 7 in terms of pIC50?
Reply | 0

Ask | Please tell me: is the molecule "Cc1cc(S(=O)(=O)Nc2ccncn2)c(F)cc1N[C@@H](C)c1cc(Cl)ccc1F" at or over 7 in terms of pIC50?
Reply | 0

Ask | Please tell me: is the molecule CCC(Nc1cc(F)c(S(=O)(=O)Nc2nccs2)cc1Cl)c1ccc2c(c1)CCCC2 (stereo not shown) at or over 7 in terms of pIC50?
Reply | 0

Ask | Please tell me: is the molecule Cc1cccc(CN2CCC2)c1CNc1cc(F)c(S(=O)(=O)Nc2cscn2)c(F)c1 [Example 285, formate] at or over 7 in terms of pIC50?
Reply | 0

Ask | Please tell me: is the molecule O=S(=O)(Nc1nccs1)c1cc(Cl)c(N[C@@H](CN2CCC2)c2ccccc2)cc1F [Example 66, 2,2,2-trifluoroacetate] at or over 7 in terms of pIC50?
Reply | 0

Ask | Please tell me: is the molecule CCN(CC)Cc1cccc(F)c1CNc1cc(F)c(S(=O)(=O)Nc2cscn2)c(F)c1 [Example 183, formate] at or over 7 in terms of pIC50?
Reply | 1

Ask | Please tell me: is the molecule O=S(=O)(Nc1cscn1)c1c(F)cc(NCc2c(Cl)cccc2CN2CC3(COC3)C2)cc1F [Example 295, formate] at or over 7 in terms of pIC50?
Reply | 0

Ask | Please tell me: is the molecule CC(C)CC(Nc1cc(F)c(S(=O)(=O)Nc2nccs2)cc1Cl)c1ccccc1 (stereo not shown) at or over 7 in terms of pIC50?
Reply | 0

Ask | Please tell me: is the molecule O=S(=O)(Nc1cscn1)c1c(F)cc(NCc2c(F)cccc2CN2CCC2)c(Cl)c1F [Example 303, 2,2,2-trifluoroacetate] at or over 7 in terms of pIC50?
Reply | 1

Ask | Please tell me: is the molecule "CCC[C@H](Nc1cc(F)c(S(=O)(=O)Nc2nccs2)cc1Cl)c1ccccc1" at or over 7 in terms of pIC50?
Reply | 0

Ask | Please tell me: is the molecule CC1(F)CN(Cc2cccc(F)c2CNc2cc(F)c(S(=O)(=O)Nc3cscn3)c(F)c2)C1 [Example 180, formate] at or over 7 in terms of pIC50?
Reply | 0

Ask | Please tell me: is the molecule "O=S(=O)(Nc1ccon1)c1cc(Cl)c(NCc2ccccc2CN2CCC2)cc1F" at or over 7 in terms of pIC50?
Reply | 0
